// data source = the supplement of paper PMC5908809

- Tested on: SNK-6 (IL-2 2.5 ng/mL);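 note: normalised to DMSO-only wells as negative and benzethonium chloride as positive control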
- EXPERIMENT_NOTES: percent inhibition of viability; higher = more inhibition
- CONDITION_CONTEXT: 72 h; 100 nM
Let's look at some compounds and their measured percent inhibition of viability.

COMPOUND	TARGET_OR_TEST_SYSTEM	percent inhibition of viability / %
C=C1C[C@@H]2[C@H](CC[C@]3(C)C(=O)CC[C@@H]23)[C@@]2(C)C=CC(=O)C=C12 [Exemestane] (max concentration tested 10000 nM)	SNK-6 (IL-2 2.5 ng/mL)	3.19
CCn1c(=O)c(-c2cc[nH]n2)cc2c(C)nc(N)nc21 [Voxtalisib] (max concentration tested 10000 nM)	SNK-6 (IL-2 2.5 ng/mL)	-25.5
COc1cc(OC2CCN(C)CC2)ccc1Nc1ncc2c(n1)n(C1CCCC1)c(=O)n2C [AZ 3146] (max concentration tested 10000 nM)	SNK-6 (IL-2 2.5 ng/mL)	28.5
CC[C@@H]1C(=O)N(C)c2cnc(Nc3ccc(C(=O)NC4CCN(C)CC4)cc3OC)nc2N1C1CCCC1 [BI 2536] (max concentration tested 1000 nM)	SNK-6 (IL-2 2.5 ng/mL)	61.7
C[C@@]1(C(=O)Nc2ccc(F)nc2)CCCN1c1nc(Nc2cc(C3CC3)n[nH]2)c2cccn2n1 (max concentration tested 10000 nM)	SNK-6 (IL-2 2.5 ng/mL)	-15.8
CC(C)[C@H]1C(=O)N[C@@H](CCCNC(=N)N)C(=O)NCC(=O)N[C@@H](CC(=O)O)C(=O)N[C@H](Cc2ccccc2)C(=O)N1C [Cilengitide] (max concentration tested 10000 nM)	SNK-6 (IL-2 2.5 ng/mL)	-18.7
CNC(=O)CN1CCC(Oc2cc3c(Nc4cccc(Cl)c4F)ncnc3cc2OC)CC1 [Sapitinib] (max concentration tested 1000 nM)	SNK-6 (IL-2 2.5 ng/mL)	25.7
CC(C)c1cc(-c2n[nH]c(=O)n2-c2ccc3c(ccn3C)c2)c(O)cc1O [Ganetespib] (max concentration tested 1000 nM)	SNK-6 (IL-2 2.5 ng/mL)	86.1
N#Cc1ccc(C(c2ccc(C#N)cc2)n2cncn2)cc1 [Letrozole] (max concentration tested 10000 nM)	SNK-6 (IL-2 2.5 ng/mL)	-25.2
O=C(Nc1cccc(C(F)(F)F)c1)Nc1cc(S(=O)(=O)NC2CC2)ccc1-c1ccsc1 [AGI-6780] (max concentration tested 10000 nM)	SNK-6 (IL-2 2.5 ng/mL)	2.33
Cc1cnc(Nc2ccc(OCCN3CCCC3)cc2)nc1Nc1cccc(S(=O)(=O)NC(C)(C)C)c1 (max concentration tested 10000 nM)	SNK-6 (IL-2 2.5 ng/mL)	-13.7
